Target: T1, P1R-DelNt (truncated human P1R deleted for residues 24-181) (human, UniProt Q03431 182-593)
T1 sequence (looked up): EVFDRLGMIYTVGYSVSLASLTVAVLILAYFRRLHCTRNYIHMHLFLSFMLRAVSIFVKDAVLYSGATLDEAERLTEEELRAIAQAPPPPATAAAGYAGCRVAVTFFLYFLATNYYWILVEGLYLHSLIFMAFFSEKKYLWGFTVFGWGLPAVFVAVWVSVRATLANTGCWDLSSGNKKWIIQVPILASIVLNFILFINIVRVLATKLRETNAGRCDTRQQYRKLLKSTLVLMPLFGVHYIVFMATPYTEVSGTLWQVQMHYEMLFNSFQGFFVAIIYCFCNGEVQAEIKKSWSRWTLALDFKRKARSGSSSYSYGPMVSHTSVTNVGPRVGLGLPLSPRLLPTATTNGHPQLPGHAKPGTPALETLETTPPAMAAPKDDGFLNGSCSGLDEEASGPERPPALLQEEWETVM
Experiment: cell-based or functional assay
No end group written: not given here.
measuredParameter: cAMP Emax (%)
# output: bare number, implied unit %

# binder, cAMP Emax (%)
records = [
    ("SVSEIQLMHALGKHLNSMERVEWLRKKLQDVHNY-NH2 [[Ala^10]PTH(1-34)]", 46),
    ("SVSEIALMHNLGKHLNSMERVEWLRKKLQDVHNY-NH2 (Gln6->Ala analog of [Tyr^34]hPTH(1-34)amide) [[Ala^6]PTH(1-34)]", 4.5),
    ("SVSEIALMHALGKHLNSMERVEWLRKKLQDVHNY-NH2 (Double Ala analog of [Tyr^34]hPTH(1-34)amide) [[Ala^6,10]PTH(1-34)]", 44),
]

Now take the following binder into account.
The reported value for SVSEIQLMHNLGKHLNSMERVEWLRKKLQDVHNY-NH2 (Human PTH(1-34) analog with Tyr at 34; also called [Tyr^34]hPTH(1-34)NH2; PTH(1-34) scaffold peptide) [PTH(1-34) ([Tyr^34]hPTH(1-34)amide)] in terms of cAMP Emax (%) is 44
